Origin of measurements: patent US20240132480A1

Recorded Human Liver Microsome Stability values for a group of compounds are listed next.
Conditions: microsomes

# GIVEN_SMILES, Human Liver Microsome Stability, µL/min/mg
data = [
    ("CN(CC(=O)Nc1ccn(C)c(=O)c1)S(=O)(=O)c1cc(C2CC2)cc2cn[nH]c12", 91),
    ("CCN(CC(=O)Nc1ccc(OC)c(Cl)c1)S(=O)(=O)c1cc(C)cc2cn[nH]c12", 528),
    ("Cc1cc(S(=O)(=O)N2CC[C@H]2C(=O)Nc2ccc(N3CCN(C)CC3)c(Cl)c2)c2[nH]ncc2c1", 113),
    ("CCc1ccc(NC(=O)CN(C)S(=O)(=O)c2cc(C)cc3cc[nH]c23)cc1C", 328),
    ("Cc1cc(S(=O)(=O)N(C)CC(=O)Nc2ccc3ncccc3c2)c2n[nH]cc2c1", 113),
    ("CN(CC(=O)Nc1ccc2c(c1)OCCN2C1CCOCC1)S(=O)(=O)c1cc(C2(O)CC2)cc2cn[nH]c12", 131),
    ("Cc1cc(S(=O)(=O)N2CC[C@H]2C(=O)Nc2ccn(C)c(=O)c2)c2[nH]c(C#N)cc2c1", -2),
    ("Cc1cc(S(=O)(=O)N(C)CC(=O)Nc2ccc3c(c2)N(C2CCOCC2)CCO3)c2[nH]ncc2c1", 94),
    ("Cc1cc(S(=O)(=O)N2CC[C@H]2C(=O)Nc2ccc3c(c2)OCCN3C)c2[nH]ncc2c1", 78),
    ("CN(CC(=O)Nc1ccc2c(c1)OCCN2C1CCOCC1)S(=O)(=O)c1cc(Cl)cc2c(F)n[nH]c12", 162),
    ("CC#CC(C)(C)NC(=O)CN(C)S(=O)(=O)c1cc(C)cc2cc(C#N)[nH]c12", 160),
    ("CNCc1n[nH]c2c(S(=O)(=O)N(C)CC(=O)Cc3ccn(C)c(=O)c3)cc(C)cc12", -2),
    ("Cc1cc(S(=O)(=O)N2CC[C@H]2C(=O)Nc2ccc3ccncc3c2)c2[nH]ncc2c1", 132),
    ("Cc1cc(S(=O)(=O)N2CC[C@H]2C(=O)Nc2ccn(C)c(=O)c2)c2[nH]nc(Cl)c2c1", -13),
    ("CN(CC(=O)Nc1ccc2c(c1)OCCN2C1COC1)S(=O)(=O)c1cc(C2(O)CC2)cc2cn[nH]c12", 60),
    ("Cc1cc(S(=O)(=O)N(C)CC(=O)Nc2ccn(C3CCOCC3)c(=O)c2)c2[nH]ncc2c1", 6),
]

----------
Target: Mtb Lpd (Mycobacterium tuberculosis (strain ATCC 25618 / H37Rv))
Format: biochemical
Conditions: read-out: LPD IC50

# COMPOUND, QUAL, IC50 / nM
rows = [
    ("Cc1cc(S(=O)(=O)N(C)CC(=O)NC2C(=O)Nc3ccccc32)c2n[nH]cc2c1 (stereo not shown)", "=", 803),
    ("Cc1cc(S(=O)(=O)N(C)CC(=O)Nc2ccc3c(c2)N(C)CCO3)c2[nH]ncc2c1", "=", 16.5),
    ("CCN(CC(=O)NC1=CC(=O)C(C)C=C1)S(=O)(=O)c1cc(C)cc2cn[nH]c12 (stereo not shown)", "=", 26.8),
    ("Cc1cc(S(=O)(=O)N(C)CC(=O)NCc2ccccc2)c2n[nH]cc2c1", "=", 31),
    ("Cc1ccc(CNC(=O)CN(C)S(=O)(=O)c2cc(C)cc3cn[nH]c23)cc1", "=", 52.2),
    ("CCN(CC(=O)Nc1ccc(OC)c(Cl)c1)S(=O)(=O)c1cc(C)cc2cn[nH]c12", "=", 41.7),
    ("CCN(CC(=O)Nc1ccc(N2CCN(C)CC2)c(Cl)c1)S(=O)(=O)c1cc(C)cc2cn[nH]c12", "=", 106),
    ("Cc1cc(S(=O)(=O)N2CC[C@H]2C(=O)NCC#Cc2ccccc2)c2[nH]ncc2c1", "=", 154),
    ("Cc1cc(S(=O)(=O)N2CC[C@H]2C(=O)Nc2ccc3c(c2)OCCO3)c2[nH]ncc2c1", "=", 23.7),
    ("Cc1cc(S(=O)(=O)N2CC[C@H]2C(=O)Nc2cc3ccccc3cn2)c2[nH]ncc2c1", "=", 48.9),
    ("O=C(Nc1ccc(N2CCOCC2)c(Cl)c1)[C@H]1CCN1S(=O)(=O)c1cc(C(F)F)cc2cn[nH]c12", ">", 10000),
    ("Cc1cc(S(=O)(=O)N(C)CC(=O)Nc2ccc3cccnc3c2)c2n[nH]cc2c1", "=", 22.9),
    ("Cc1cc(S(=O)(=O)N2CC[C@H]2C(=O)Nc2ccc(OCCN(C)C)c(Cl)c2)c2[nH]ncc2c1 [Example 199]", "=", 186),
    ("Cc1cc(S(=O)(=O)N(C)CC(=O)Nc2ccn(C3COC3)c(=O)c2)c2[nH]ncc2c1", "=", 56),
    ("Cc1cc(S(=O)(=O)N(C)CC(=O)NC2CCCOC2)c2n[nH]cc2c1 (stereo not shown)", "=", 90.6),
    ("Cc1cc(S(=O)(=O)N2CC[C@H]2C(=O)Nc2ccc3c(c2)OCCN3C2COC2)c2n[nH]cc2c1", "=", 36.2),
]

----------
Details: microsomes

# GIVEN_SMILES, Human Liver Microsome Stability / µL/min/mg
measured = [
    ("Cc1cc(S(=O)(=O)N(C)CC(=O)Nc2ccc3c(c2)N(C)CCO3)c2[nH]ncc2c1", 91),
    ("Cc1cc(S(=O)(=O)N(C)CC(=O)Nc2ccn(C)c(=O)c2)c2[nH]ncc2c1F", 42),
    ("O=C(Nc1ccc2c(c1)OCCN2C1CCOCC1)[C@@H]1CCN1S(=O)(=O)c1cc(C(F)F)cc2c(F)n[nH]c12", 114),
    ("Cc1cc(S(=O)(=O)N2CC[C@H]2C(=O)Nc2ccc3c(c2)OCCN3C2CCOCC2)c2n[nH]cc2c1", 166),
    ("CC(=O)Nc1cccc(NC(=O)CN(C)S(=O)(=O)c2cc(C)cc3cc(C#N)[nH]c23)c1", 177),
    ("Cc1cc(S(=O)(=O)N2CCC[C@H]2C(=O)Nc2ccn(C)c(=O)c2)c2[nH]ncc2c1", 18),
    ("Cc1cc(S(=O)(=O)N(C)CC(=O)Nc2ccn(C)c(=O)c2)c2[nH]ncc2c1", -11),
    ("Cc1cc(S(=O)(=O)N(C)CC(=O)Nc2ccc3c(c2)OCCN3C2COC2)c2[nH]ncc2c1", 45),
]

----------
Target: Mtb Lpd (Mycobacterium tuberculosis (strain ATCC 25618 / H37Rv))
Format: biochemical
Details: 30 min preincubation; read-out: LPD IC50 (μM) w/ 30 min preincubation
Recorded IC50 values for a group of compounds are listed next.

# COMPOUND, IC50
records = [
    ("Cc1cc(S(=O)(=O)N(C)CC(=O)Nc2cc(=O)n(C)cn2)c2[nH]c(C#N)cc2c1 [Example 222]", "0.027 µM"),
    ("CC#CC(C)(C)NC(=O)CN(C)S(=O)(=O)c1cc(C)cc2cc(C#N)[nH]c12 [Example 229]", "0.031 µM"),
    ("Cc1cc(S(=O)(=O)N(C)CC(=O)Nc2ccc3c(c2)N(C2COC2)CCO3)c2[nH]c(C#N)cc2c1 [Example 208]", "0.015 µM"),
    ("CCCCNC(=O)CN(C)S(=O)(=O)c1cc(C)cc2cc(C#N)[nH]c12 [Example 223]", "0.028 µM"),
]

----------
Biological target: Mtb Lpd (Mycobacterium tuberculosis (strain ATCC 25618 / H37Rv))
Type: biochemical
Conditions: read-out: LPD IC50

# MOLECULE, ASSAYED_TARGET, QUAL, IC50 [nM]
records = [
    ("Cc1cc(S(=O)(=O)N(C)CC(=O)Nc2ccn(C)c(=O)c2)c2[nH]nc(C)c2c1", "Mtb Lpd (Mycobacterium tuberculosis (strain ATCC 25618 / H37Rv))", "=", 65.7),
    ("Cc1cc(S(=O)(=O)N(C)CC(=O)N[C@H]2CCc3ccccc32)c2n[nH]cc2c1", "Mtb Lpd (Mycobacterium tuberculosis (strain ATCC 25618 / H37Rv))", "=", 874),
    ("Cc1cc(S(=O)(=O)N(C)CC(=O)Nc2ccn(C)c(=O)c2)c2[nH]ncc2c1F", "Mtb Lpd (Mycobacterium tuberculosis (strain ATCC 25618 / H37Rv))", "=", 49.8),
    ("CN(CC(=O)Nc1ccc2c(c1)OCCN2C1COC1)S(=O)(=O)c1cc(C2(O)CC2)cc2cn[nH]c12", "Mtb Lpd (Mycobacterium tuberculosis (strain ATCC 25618 / H37Rv))", "=", 406),
    ("Cc1cc(S(=O)(=O)N2CC[C@H]2C(=O)NC2CCc3ccccc32)c2[nH]ncc2c1 (stereo partly drawn) [Example 138]", "Mtb Lpd (Mycobacterium tuberculosis (strain ATCC 25618 / H37Rv))", ">", 10000),
    ("Cc1cc(S(=O)(=O)N2CC[C@H]2C(=O)Nc2ccc3ccccc3n2)c2[nH]ncc2c1", "Mtb Lpd (Mycobacterium tuberculosis (strain ATCC 25618 / H37Rv))", "=", 27),
    ("Cc1cc(NC(=O)CN(C)S(=O)(=O)c2cc(C3CC3)cc3cn[nH]c23)ccc1N1CCOCC1", "Mtb Lpd (Mycobacterium tuberculosis (strain ATCC 25618 / H37Rv))", "=", 6.7),
    ("COc1ccc(NC(=O)[C@@H]2CCN2S(=O)(=O)c2cc(C)cc3cn[nH]c23)cc1Cl", "Mtb Lpd (Mycobacterium tuberculosis (strain ATCC 25618 / H37Rv))", "=", 48.8),
    ("Cc1cc(S(=O)(=O)N(C)CC(=O)Nc2ccn(C(C)C)c(=O)c2)c2[nH]ncc2c1", "Mtb Lpd (Mycobacterium tuberculosis (strain ATCC 25618 / H37Rv))", "=", 50.8),
    ("Cc1cc(S(=O)(=O)N2CCC(C(=O)Nc3ccc4c(c3)OCCN4C)C2)c2[nH]ncc2c1 (stereo not drawn)", "Mtb Lpd (Mycobacterium tuberculosis (strain ATCC 25618 / H37Rv))", "=", 19.7),
    ("CN(C)CCOc1ccc(NC(=O)CN(C)S(=O)(=O)c2cccc3cn[nH]c23)cc1Cl", "Mtb Lpd (Mycobacterium tuberculosis (strain ATCC 25618 / H37Rv))", "=", 85),
    ("Cc1cc(S(=O)(=O)N2CC[C@H]2C(=O)NC2CCc3ccccc32)c2[nH]ncc2c1 (stereo partly drawn) [Example 131]", "Mtb Lpd (Mycobacterium tuberculosis (strain ATCC 25618 / H37Rv))", "=", 2520),
    ("Cc1cc(S(=O)(=O)N(C)CC(=O)Nc2cc3ccccc3cn2)c2n[nH]cc2c1", "Mtb Lpd (Mycobacterium tuberculosis (strain ATCC 25618 / H37Rv))", "=", 37.2),
    ("Cc1cc(S(=O)(=O)N(C)CC(=O)Nc2ccn(C)c(=O)c2)c2[nH]nc(C#N)c2c1", "Mtb Lpd (Mycobacterium tuberculosis (strain ATCC 25618 / H37Rv))", "=", 724),
    ("CCn1ccc(NC(=O)CN(C)S(=O)(=O)c2cc(C)cc3cn[nH]c23)cc1=O", "Mtb Lpd (Mycobacterium tuberculosis (strain ATCC 25618 / H37Rv))", "=", 53.1),
    ("Cc1cc(S(=O)(=O)N(C)CC(=O)Nc2ccn3nc(C)cc3c2)c2[nH]ncc2c1", "Mtb Lpd (Mycobacterium tuberculosis (strain ATCC 25618 / H37Rv))", "=", 157),
    ("O=C(Nc1ccc2c(c1)OCCN2C1CCOCC1)[C@@H]1CCN1S(=O)(=O)c1cc(Cl)cc2c(F)n[nH]c12", "Mtb Lpd (Mycobacterium tuberculosis (strain ATCC 25618 / H37Rv))", "=", 59),
    ("Cc1cc(S(=O)(=O)N(C)CC(=O)Nc2nc3cnccc3s2)c2n[nH]cc2c1", "Mtb Lpd (Mycobacterium tuberculosis (strain ATCC 25618 / H37Rv))", "=", 27.6),
    ("Cc1cc(S(=O)(=O)N(C)CC(=O)Nc2ccc3c(c2)N(C2COC2)CCO3)c2[nH]ncc2c1", "Mtb Lpd (Mycobacterium tuberculosis (strain ATCC 25618 / H37Rv))", "=", 38),
    ("Cc1cc(S(=O)(=O)N2CCC[C@@H](C(=O)Nc3ccn(C)c(=O)c3)C2)c2[nH]ncc2c1", "Mtb Lpd (Mycobacterium tuberculosis (strain ATCC 25618 / H37Rv))", "=", 112),
    ("Cc1cc(S(=O)(=O)N2CC[C@H]2C(=O)NC2CCN(C)CC2)c2[nH]ncc2c1", "Mtb Lpd (Mycobacterium tuberculosis (strain ATCC 25618 / H37Rv))", "=", 6560),
    ("Cc1cc(S(=O)(=O)N2CC[C@H]2C(=O)Nc2ccc(N3CCN(C)CC3)c(Cl)c2)c2[nH]ncc2c1", "Mtb Lpd (Mycobacterium tuberculosis (strain ATCC 25618 / H37Rv))", "=", 48),
    ("CN(CC(=O)Nc1ccc2c(c1)OCCN2C1CCOCC1)S(=O)(=O)c1cc(C(F)F)cc2cn[nH]c12", "Mtb Lpd (Mycobacterium tuberculosis (strain ATCC 25618 / H37Rv))", "=", 78),
    ("Cc1cc(NC(=O)CN(C)S(=O)(=O)c2c(C)c(C)cc3cn[nH]c23)ccc1N1CCOCC1", "Mtb Lpd (Mycobacterium tuberculosis (strain ATCC 25618 / H37Rv))", "=", 46.9),
]
